Where do the numbers come from? From PubChem BioAssay (NCI).

Tested on: SK-MEL-28 melanoma
experimentNotes: NCI-60 one-dose screen, 48 h
reportedConditions: 10 µM
This is part of a sample that, as a whole, favours compounds with a hit. Of some 83,000 tested, about 20% had one in any assay. Active and inactive are the calls of the source. Rule for the calls: active = growth percent below 10; inactive = the rest.
Answer with one of the outcomes yes = active, no = inactive

Example results:
CNC(=O)c1cc(Oc2ccc(NC(=O)Nc3ccc(Cl)c(C(C)(C)C)c3)c(F)c2)ccn1: no
CCOC(=O)CNC(=O)Nc1ccc(Oc2ccc(NC(=O)NCC(=O)OCC)cc2)cc1: no
N#CN1CC[C@H](C(=O)Nc2ncc(-c3ccccc3)s2)C1: yes
Clc1cc(Cl)c(Cl)c(-c2nc(-c3cccnc3)cs2)c1: no
COCCOC(=O)NC(=O)Nc1ccc(C(=O)c2ccc(Cl)cc2)cc1: no

Per the records of this test, what outcome belongs to `CC1(C)CCc2cc(-c3ccn(S(=O)(=O)c4ccc(Cl)cc4)n3)ccc2O1` ?
no

Just curious, what result did `COc1ccc(-c2nc3sc(-c4ccccc4)c(-c4ccccc4)n3c2/C=C/c2ccc(F)cc2)cc1` get here?
no

Identify the outcome logged in this assay for the molecule shown: `CNCCCNCCCN1C(=O)c2ccc3c4c(ccc(c24)C1=O)C(=O)N(CCCNCc1ccccc1OC)C3=O`
yes

// outcome(item) with item = `COc1ccc(NC(=O)CCn2cnc3c(cc(-c4ccccc4)n3-c3ccccc3)c2=O)cc1`
no

Which outcome was assigned to `CCOCC[P+](c1ccccc1)(c1ccccc1)c1ccccc1` in this test?
no

* * *

System: A549/ATCC NSCLC
experimentNotes: NCI-60 one-dose screen, 48 h (100 = growth as untreated, 0 = no growth, -100 = all killed)
reportedConditions: 10 µM
Compounds without any hit were thinned out: in the full panel of roughly 83,000, 20% have a hit.
Overview of reported growth across a group of molecules:
Quick reminder: number only, in %, skip the unit.

N#Cc1c2c([nH]c(=O)c1C(N)=O)CCCCC2: 91.3

Name the recorded growth for `COc1ccc(-c2csc(-c3cc(Cl)cc(Cl)c3Cl)n2)cc1` .
54.5

Using the record for CN(C)c1ccc2c(c1)OC(N)=C(C#N)C2c1ccc2c(c1)CCO2 (stereo not given) , report its growth.
21.9

What does the data say about its growth? Entry: `COc1ccc(-c2nnc(COc3ccc(NC(=O)Nc4ccccc4)cc3F)o2)cc1`
93.3

# get_value(readout='growth', item= `COc1ccc(Cn2cc3c(c2-c2ccccc2)CC(C)(C)c2cnoc2-3)cc1` )
49.6

Return reported growth; argument: COc1cc(C2CC(=O)Nc3c2c(C)nn3-c2nc3ccccc3[nH]2)cc(OC)c1O (stereo not given)
40.1

Sample `COc1cc(C)c2sc3ccccc3c(=O)c2c1NCCN(C)C` — what was its growth?
28.8

Recorded growth for `Cc1cc(/C=C2\SC(=Nc3ccccc3)N(C3CCCC3)C2=O)c(C)n1-c1ccc(Cl)cc1` , please?
-27.5

Entry `CCOc1ccc(-n2cc(-c3ccc(N(C)C)cc3)[n+]3c2CCCCC3)cc1` : reported growth = ?
22.4

What value of growth has been reported for the following molecule? `N=C(N)c1ccc(-c2ccc(-c3ccccc3)s2)s1`
-60.8

* * *

Test system: IGROV1 ovarian
experimentNotes: NCI-60 one-dose screen, 48 h
reportedConditions: 10 µM
Compounds without any hit were thinned out: in the full panel of roughly 83,000, 20% have a hit. Activity calls are given as the source filed them. The calls were made as follows: active = growth percent below 10; inactive = the rest.
Return exactly one item of active, inactive

COc1ccc(NC(=O)c2sc3nc4c(cc3c2N)C(O)CCC4)cc1 (stereo not drawn): inactive
O=C(CCl)N1c2ccccc2Sc2ccc3ccccc3c21: active
COCCNCC(O)Cn1c2ccc(Cl)cc2c2cc(Cl)ccc21 (stereo not drawn): active
C=CCc1cc(Nc2c3ccc(Cl)cc3nc3ccc(OC)cc23)cc(CN(CC)CC)c1O: inactive
COc1cc(CSc2nc3ccc(C)cc3c(=O)n2Cc2ccccc2)cc(OC)c1OC: inactive
COc1cc(C(=O)n2nc(N)c3c(C)cc(C)nc32)cc(OC)c1OC: inactive

For Cc1ccc(C2C=C(c3ccc(Cl)cc3)N=C3SC=CN32)c(Br)c1 (stereo not drawn) , what call appears in the results of this test?
inactive

Which outcome was assigned to `COc1cc(OC)cc(-c2n/c(=C\c3c(O)[nH]c4ccc(OC)cc34)cc3c2=Nc2ccccc2-3)c1` in this test?
inactive

# outcome recorded in this test, key = `COc1ccc2nc(/C=C/c3ccc(N(C)C)cc3)sc2c1`
inactive

Query: recorded result category for `Clc1cc(Cl)c(Cl)c(-c2nc(-c3cccnc3)cs2)c1` in this test
inactive

Assay outcome for `CC(C)c1[nH]nc2c(NCc3ccc(-c4ccccn4)cc3)nc(SCCN)nc12` : what was it?
inactive

Name the outcome recorded for `COc1cc(/C=C/C(=O)c2cc(-c3ccc(F)cc3)ccc2O)cc(OC)c1OC` in the assay.
inactive

Could you kindly confirm the outcome this assay logged for `COc1ccc(NC(=O)CCn2cnc3c(cc(-c4ccccc4)n3-c3ccccc3)c2=O)cc1` ?
inactive
